test system: medullary thyroid carcinoma primary cultures; experiment: Cell viability of MTC primary cultures (MTT); type: cell-based, human; conditions: MTC primary culture #3 (responder), 10^−8 M, forty-eight hours
Square brackets hold non-standard residues; d marks the D form. Peptide text beside a SMILES is read from it. Tic = O=C(O)[C@@H]1Cc2ccccc2CN1; Abu = CC[C@H](N)C(=O)O
// values below are reported % cell viability reduction vs. control
value kind: % cell viability reduction vs. control (%)

>>> assay_value("CC[C@@H]1NC(=O)[C@H](CCCCN)NC(=O)[C@@H](Cc2c[nH]c3ccccc23)NC(=O)[C@H](Cc2ccc(O)cc2)NC(=O)[C@@H]2Cc3ccccc3CN2C(=O)[C@H](Cc2ccccc2)NC1=O [Cmpd #2, c[Tic-Tyr-D-Trp-Lys-Abu-Phe]] (cyclo([Tic]Y[dW]K[Abu]F))")
"−3.2"
>>> assay_value("C[C@@H](O)[C@H](NC(=O)[C@H](Cc1ccccc1)NC(=O)[C@@H](NC(=O)[C@H](CCCCN)NC(=O)[C@@H](Cc1c[nH]c2ccccc12)NC(=O)[C@H](Cc1c[nH]c2ccccc12)NC(=O)[C@H](Cc1ccccc1)NC(=O)[C@H](N)Cc1ccccc1)[C@@H](C)O)C(N)=O")
0.4
>>> assay_value("CC(C)[C@@H]1NC(=O)[C@H](CCCCN)NC(=O)[C@@H](Cc2c[nH]c3ccccc23)NC(=O)[C@H](Cc2ccc(O)c(I)c2)NC(=O)[C@@H](NC(=O)[C@H](N)Cc2ccccc2)CSSC[C@@H](C(=O)N[C@H](C(N)=O)[C@@H](C)O)NC1=O")
13.3
>>> assay_value("CC(C)[C@@H]1NC(=O)[C@H](CCCCN)NC(=O)[C@@H](Cc2c[nH]c3ccccc23)NC(=O)[C@H](Cc2ccc(O)cc2)NC(=O)[C@@H](NC(=O)[C@H](N)Cc2ccc3ccccc3c2)CSSC[C@@H](C(=O)N[C@H](C(N)=O)[C@@H](C)O)NC1=O [lanreotide, reference compound]")
1.5

* * *

Test system: medullary thyroid carcinoma primary cultures
Experiment: Cell viability of MTC primary cultures (MTT)
Assay type: cell-based, human
Details: MTC primary culture #11 (responder), 10^−8 M, forty-eight hours
Experimental: Primary cultured cells from 18 selected MTC samples were incubated in ninety six well plates for forty eight hours with each SSTR agonist at 10^−8 M. Control cells were treated with vehicle solution. Cell viability was measured by a colorimetric method among eight replicates from treated and untreated (control) primary cultured cells. […] Data are expressed as the mean±SE percent cell viability reduction vs. untreated control cells. *P<0.05, and **P<0.01 vs. control. […]
Square brackets hold non-standard residues; d marks the D form. Peptide text beside a SMILES is read from it. Tic = O=C(O)[C@@H]1Cc2ccccc2CN1; Abu = CC[C@H](N)C(=O)O
// values below are reported % cell viability reduction vs. control
value kind: % cell viability reduction vs. control (%)

>>> assay_value("CC(C)[C@@H]1NC(=O)[C@H](CCCCN)NC(=O)[C@@H](Cc2c[nH]c3ccccc23)NC(=O)[C@H](Cc2ccc(O)cc2)NC(=O)[C@@H](NC(=O)[C@H](N)Cc2ccc3ccccc3c2)CSSC[C@@H](C(=O)N[C@H](C(N)=O)[C@@H](C)O)NC1=O [lanreotide, reference compound]")
"−11.2"
>>> assay_value("CC[C@@H]1NC(=O)[C@H](CCCCN)NC(=O)[C@@H](Cc2c[nH]c3ccccc23)NC(=O)[C@H](Cc2ccc(O)cc2)NC(=O)[C@@H]2Cc3ccccc3CN2C(=O)[C@H](Cc2ccccc2)NC1=O [Cmpd #2, c[Tic-Tyr-D-Trp-Lys-Abu-Phe]] (cyclo([Tic]Y[dW]K[Abu]F))")
"−0.4"
>>> assay_value("CC(C)[C@@H]1NC(=O)[C@H](CCCCN)NC(=O)[C@@H](Cc2c[nH]c3ccccc23)NC(=O)[C@H](Cc2ccc(O)c(I)c2)NC(=O)[C@@H](NC(=O)[C@H](N)Cc2ccccc2)CSSC[C@@H](C(=O)N[C@H](C(N)=O)[C@@H](C)O)NC1=O [Cmpd #4]")
1.4
>>> assay_value("C[C@@H](O)[C@H](NC(=O)[C@H](Cc1ccccc1)NC(=O)[C@@H](NC(=O)[C@H](CCCCN)NC(=O)[C@@H](Cc1c[nH]c2ccccc12)NC(=O)[C@H](Cc1c[nH]c2ccccc12)NC(=O)[C@H](Cc1ccccc1)NC(=O)[C@H](N)Cc1ccccc1)[C@@H](C)O)C(N)=O [Cmpd #3, D-Phe-Phe-Trp-D-Trp-Lys-Thr-Phe-Thr-NH2]")
"−1.0"
